# TARGET SYSTEM: MMP-12 (Homo sapiens)
# Construct: catalytic domain(^100Phe˜^263Gly) was amplified with RT-PCR; His-tag; enterokinase digestion-site; made in house; host or cells: Escherichia coli
# Sequence (P39900 100-263): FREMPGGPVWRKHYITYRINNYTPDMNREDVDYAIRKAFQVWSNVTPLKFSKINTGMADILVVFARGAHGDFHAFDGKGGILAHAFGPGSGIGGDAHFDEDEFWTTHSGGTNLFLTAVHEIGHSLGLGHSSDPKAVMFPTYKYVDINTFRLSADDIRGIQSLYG
# ASSAY NAME: Assay for inhibitory activities on MMPs (fluorogenic peptide substrate), MMP-12
# Type: biochemical
# CONDITION LABEL: catalytic domain 100Phe-263Gly; substrate MOCAc-Pro-Leu-Gly-Leu-A2Pr(DNP)-Ala-Arg-NH2
# Method: In regard to MMP-12, catalytic domain(^100Phe˜^263Gly) was amplified with RT-PCR from Human Placenta Total RNA. This was cloned in Escherichia. coli expression vector pTrc99AHE inserted with His-tag sequence and enterokinase digestion-site, induced and expressed by IPTG (Isopropyl-β-D-thiogalactopyranoside) and expressed in a insoluble fraction. […] The enzymatic activity on MMPs was analyzed by the method described in “C. […]
// boundary case: IC50 equal to 3 nM maps to 0; strictly smaller maps to 1

compound_string=COc1ccc(-c2cnc(-c3ccc(S(=O)(=O)N[C@H](C)C(=O)O)cc3)s2)cc1 qualitative_label=1
compound_string=COc1ccc(-c2cnc(-c3ccc(S(=O)(=O)N[C@H](Cc4ccccc4)C(=O)O)cc3)o2)cc1 qualitative_label=1
compound_string=C[C@@H](NS(=O)(=O)c1ccc(-c2ncc(-c3ccc(F)cc3)s2)cc1)C(=O)O qualitative_label=0
compound_string=O=C(O)[C@@H](Cc1ccccc1)NS(=O)(=O)c1ccc(-c2ncc(-c3ccc4ccccc4c3)o2)cc1 qualitative_label=1
compound_string=CC(C)[C@@H](NS(=O)(=O)c1ccc(-c2ncc(-c3ccc(F)cc3)o2)cc1)C(=O)O qualitative_label=0
compound_string=CC(C)[C@H](NS(=O)(=O)c1ccc(-c2ncc(-c3ccc(F)cc3)s2)cc1)C(=O)O qualitative_label=1
compound_string=CC(C)[C@H](NS(=O)(=O)c1ccc(-c2ncc(-c3ccc(F)cc3)o2)cc1)C(=O)O qualitative_label=0
compound_string=C[C@@H](NS(=O)(=O)c1ccc(-c2ncc(-c3ccccc3)s2)cc1)C(=O)O qualitative_label=0
compound_string=O=C(O)[C@@H](Cc1ccccc1)NS(=O)(=O)c1ccc(-c2ncc(-c3ccc(F)cc3)s2)cc1 qualitative_label=0
compound_string=CC(C)C[C@@H](NS(=O)(=O)c1ccc(-c2ncc(-c3ccc(Cl)cc3)o2)cc1)C(=O)O qualitative_label=0
compound_string=C[C@H](NS(=O)(=O)c1ccc(-c2ncc(-c3ccc(Cl)cc3)s2)cc1)C(=O)O qualitative_label=1
compound_string=COc1ccc(-c2cnc(-c3ccc(S(=O)(=O)N[C@H](CC(C)C)C(=O)O)cc3)s2)cc1 qualitative_label=0
compound_string=O=C(O)[C@H](Cc1ccccc1)NS(=O)(=O)c1ccc(-c2ncc(-c3ccc(Cl)cc3)s2)cc1 qualitative_label=1
compound_string=CC(C)[C@H](NS(=O)(=O)c1ccc(-c2ncc(-c3ccccc3)o2)cc1)C(=O)O qualitative_label=1
compound_string=O=C(O)C[C@@H](NS(=O)(=O)c1ccc(-c2ncc(-c3ccc(Cl)cc3)s2)cc1)C(=O)O qualitative_label=1
